pKd values by entry
target: Fc region of human immunoglobulin (human); assay: pH 7.4
# reply with the number alone; pKd is -log10 of concentration in mol/L

• M-PG07 (designed binder) MDTYKLILNGKTLKGETTTEAVDAATAEKVFKQYANEHGVDGEWTYDPETKTFTVTE = 6.54

Please look at the following binder next.
### Prompt Provide measured pKd value, entry: M-PG19 (designed binder) MDTYKLILNGKTLKGETTTEAVDAATAEKVFKHYANEHGVHGHWTYDPETKTFTVTE
### Response 7.37
